Target: Tyrosine-protein kinase ITK/TSK (Homo sapiens);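 note: values are mean percent inhibition of ITK from the GSK PKIS screen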
Settings: at 1 µM
MEASUREMENT LABEL: inhibition (%)

INSERT INTO measurements (molecule, measurement_label, measured_value) VALUES
  ('Cc1cc(O)cc(C)c1/C=C/c1cncc(C(=O)N(C)C)c1', 'inhibition', 1.94),
  ('c1ccc(Nc2ncc(-c3ccccc3)o2)cc1', 'inhibition', 1.67),
  ('ON=C1CCc2cc(-c3nc(C4CCNCC4)[nH]c3-c3ccncc3)ccc21', 'inhibition', 0.87),
  ('OCc1ccc(-c2nc(-c3ccccn3)c(-c3ccc4c(c3)OCO4)[nH]2)cc1', 'inhibition', 2.5),
  ('COc1ccc(-c2nn3ncccc3c2-c2ccnc(Nc3cccc(C(F)(F)F)c3)n2)cc1', 'inhibition', 1.39);

* * *

Below, each of the compounds is paired with its reported inhibition value.
Molecular target: Serine/threonine-protein kinase Nek6 (Homo sapiens);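 note: values are mean inhibition of NEK6 from the GSK PKIS screen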
Conditions: at 1 µM
MEASUREMENT LABEL: inhibition (%)

INSERT INTO results (molecule, subject_of_test, units_label, measured_value) VALUES
  ('Nc1nccc(-c2c(-c3ccc(F)cc3)ncn2CCCN2CCOCC2)n1', 'Serine/threonine-protein kinase Nek6 (Homo sapiens)', '%', 0.28),
  ('Cc1ccc(NC(=O)CC2CC2)cc1-c1ccc(C(=O)NCC2CC2)cc1', 'Serine/threonine-protein kinase Nek6 (Homo sapiens)', '%', 0.33),
  ('Nc1ccc(C#Cc2cncnc2Nc2ccc(OCc3cccc(F)c3)c(Cl)c2)cc1', 'Serine/threonine-protein kinase Nek6 (Homo sapiens)', '%', 0.63),
  ('COc1cc2ncnc(Nc3ccc4c(cnn4Cc4ccccc4)c3)c2cc1OC', 'Serine/threonine-protein kinase Nek6 (Homo sapiens)', '%', 3.49),
  ('O=C(Nc1ccc(Oc2ccc3[nH]c(NC(=O)c4ccco4)nc3c2)cc1)Nc1cc(C(F)(F)F)ccc1F', 'Serine/threonine-protein kinase Nek6 (Homo sapiens)', '%', -0.32);

* * *

Reported inhibition values for a set of compounds
System: Tyrosine-protein kinase ABL1 (Homo sapiens), P00519 [M351T]
Conditions: at 0.1 µM
MEASUREMENT LABEL: inhibition (%)

INSERT INTO results (molecule, measurement_label, units_label, measured_value) VALUES
  ('C[C@@H](Oc1cc(-n2cnc3ccc(OC[C@@H](O)CO)cc32)sc1C(N)=O)c1ccccc1Cl', 'inhibition', '%', 1.32),
  ('NC(=O)c1sc(-n2cnc3ccccc32)cc1OCc1ccccc1Br', 'inhibition', '%', 0.66),
  ('COc1cc(/C=N/Nc2ncnc3c2cnn3C(C)C)ccc1O', 'inhibition', '%', 34.7),
  ('Nc1nccc(-c2c(-c3ccc(F)cc3)ncn2CCCN2CCOCC2)n1', 'inhibition', '%', 0.51),
  ('CS(=O)(=O)Nc1cccc(-c2ccc3c(NC(=O)C4CC4)n[nH]c3c2)c1', 'inhibition', '%', 3.14),
  ('O=C1Nc2ccc(-c3cccnc3)cc2C1=Cc1cc(Br)c(O)c(Br)c1', 'inhibition', '%', 4.37),
  ('COc1ccc2ncnc(Nc3ccc(OCc4ccccc4)cc3)c2c1', 'inhibition', '%', -1.29),
  ('Cc1ccc(C(=O)NC2CC2)cc1-c1ccc2[nH]ncc2c1', 'inhibition', '%', 1.39),
  ('COc1cc2ncnc(Nc3ccc4c(cnn4Cc4ccccc4)c3)c2cc1OC', 'inhibition', '%', 0.94),
  ('Cc1cc(-c2ccccn2)cc(C)c1/C=C/c1cncc(-c2nn[nH]n2)c1', 'inhibition', '%', 0.81),
  ('OCc1ccc(-c2nc(-c3ccccn3)c(-c3ccc4c(c3)OCO4)[nH]2)cc1', 'inhibition', '%', 1.06);

* * *

Item-by-item account of inhibition
Molecular target: Inhibitor of nuclear factor kappa-B kinase subunit beta (Homo sapiens) (UniProt O14920);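 note: values are mean percent inhibition of IKKB, part of the GSK PKIS screening data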
Sequence (whole entry): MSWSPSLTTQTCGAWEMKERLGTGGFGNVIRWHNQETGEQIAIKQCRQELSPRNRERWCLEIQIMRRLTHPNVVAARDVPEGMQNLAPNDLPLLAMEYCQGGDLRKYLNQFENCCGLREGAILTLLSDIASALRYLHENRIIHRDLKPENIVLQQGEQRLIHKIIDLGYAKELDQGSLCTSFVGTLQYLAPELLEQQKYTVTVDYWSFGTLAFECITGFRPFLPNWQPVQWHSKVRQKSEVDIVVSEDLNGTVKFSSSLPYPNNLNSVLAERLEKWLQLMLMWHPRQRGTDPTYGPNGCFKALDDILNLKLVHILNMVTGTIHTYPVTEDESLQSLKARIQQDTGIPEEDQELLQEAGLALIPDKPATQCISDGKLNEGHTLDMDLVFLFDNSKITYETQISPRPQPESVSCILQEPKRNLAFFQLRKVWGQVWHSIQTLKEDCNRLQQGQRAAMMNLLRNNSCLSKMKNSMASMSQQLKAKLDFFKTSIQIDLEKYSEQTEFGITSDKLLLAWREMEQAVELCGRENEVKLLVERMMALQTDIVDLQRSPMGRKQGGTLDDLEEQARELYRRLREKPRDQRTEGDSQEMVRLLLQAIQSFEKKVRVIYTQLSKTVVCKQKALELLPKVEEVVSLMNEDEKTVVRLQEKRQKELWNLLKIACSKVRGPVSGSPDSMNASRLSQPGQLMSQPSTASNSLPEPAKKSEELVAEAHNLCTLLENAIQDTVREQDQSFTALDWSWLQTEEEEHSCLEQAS
Conditions: at 0.1 µM
MEASUREMENT LABEL: inhibition (%)

INSERT INTO measurements (molecule, measurement_label, units_label, measured_value) VALUES
  ('Cc1ccc2c(-c3ccnc(Nc4ccc5c(c4)OCCO5)n3)c(-c3ccc(C(F)(F)F)cc3)nn2n1', 'inhibition', '%', -1.92),
  ('CCS(=O)(=O)c1ccc(OC)c(Nc2ncc(-c3cccc(OC)c3)o2)c1', 'inhibition', '%', 3.95),
  ('NC(=O)c1cccc(Nc2nccc(Nc3cccc(F)c3)n2)c1', 'inhibition', '%', 6.25),
  ('COC(=O)c1cncc(/C=C/c2c(C)cc(O)cc2C)c1', 'inhibition', '%', 4.7),
  ('CC(C)c1ccc(Nc2nccc(-c3cnn4ncccc34)n2)cc1', 'inhibition', '%', 7.7),
  ('FC(F)(F)c1ccc(-c2nn3ncccc3c2-c2ccnc(Nc3ccc4c(c3)OCCO4)n2)cc1', 'inhibition', '%', 0.04),
  ('N#Cc1c(NC(=O)c2ccccc2F)sc2c1CCCC2', 'inhibition', '%', -1.19),
  ('Cc1nc(-c2ccccc2)n2nc(NCCCN3CCOCC3)ncc12', 'inhibition', '%', 2.75),
  ('CCCN1CCCC(c2ccc(Nc3nc(Nc4cc(F)ccc4C(N)=O)c4cc[nH]c4n3)c(OC)c2)C1 (stereo not given)', 'inhibition', '%', 8.08),
  ('COc1cc(Nc2nccc(-c3cnn4ncccc34)n2)cc(OC)c1', 'inhibition', '%', 5.71);

* * *

# inhibition values compiled below
Target: Serine/threonine-protein kinase DCLK2 (Homo sapiens) (UniProt Q8N568);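 note: each value is a mean percent inhibition of DCLK2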
Sequence (Q8N568 whole entry): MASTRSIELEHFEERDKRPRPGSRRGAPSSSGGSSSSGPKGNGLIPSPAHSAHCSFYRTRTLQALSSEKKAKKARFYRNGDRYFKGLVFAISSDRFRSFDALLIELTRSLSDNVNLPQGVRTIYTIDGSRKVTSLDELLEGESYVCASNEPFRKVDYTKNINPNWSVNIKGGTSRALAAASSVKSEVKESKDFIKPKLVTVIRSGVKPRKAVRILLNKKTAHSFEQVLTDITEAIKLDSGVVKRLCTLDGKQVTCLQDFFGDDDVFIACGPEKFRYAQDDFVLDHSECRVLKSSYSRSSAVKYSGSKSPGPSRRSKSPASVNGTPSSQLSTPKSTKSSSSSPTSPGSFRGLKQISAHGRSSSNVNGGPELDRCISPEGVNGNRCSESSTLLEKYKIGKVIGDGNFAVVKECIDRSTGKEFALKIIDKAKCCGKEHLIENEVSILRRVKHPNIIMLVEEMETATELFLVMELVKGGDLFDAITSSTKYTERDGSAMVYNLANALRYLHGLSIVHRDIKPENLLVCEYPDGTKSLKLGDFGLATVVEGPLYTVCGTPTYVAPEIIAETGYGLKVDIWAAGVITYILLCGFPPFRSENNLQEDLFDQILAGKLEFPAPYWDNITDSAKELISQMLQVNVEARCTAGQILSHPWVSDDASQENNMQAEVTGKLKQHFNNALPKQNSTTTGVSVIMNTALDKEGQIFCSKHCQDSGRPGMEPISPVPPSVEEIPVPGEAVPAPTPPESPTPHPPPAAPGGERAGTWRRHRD
Conditions: at 1 µM
MEASUREMENT LABEL: inhibition (%)

INSERT INTO measurements (molecule, units_label, measured_value) VALUES
  ('CCS(=O)(=O)c1ccc(OC)c(Nc2nccc(N(C)c3ccc4c(C)n[nH]c4c3)n2)c1', '%', 2.14),
  ('O=C(Nc1ccc(Oc2ccc3[nH]c(NC(=O)c4ccco4)nc3c2)cc1)Nc1cc(C(F)(F)F)ccc1F', '%', -5.38),
  ('NS(=O)(=O)c1cccc(-c2cc3ccncc3cc2OCc2ccccc2)c1', '%', 0.91),
  ('O=S(=O)(CCOCc1ccc(-c2ccc3ncnc(Nc4ccc(OCc5cccc(F)c5)c(Cl)c4)c3c2)o1)c1ccccc1', '%', 1.2),
  ('CN(C)CCCn1c(-c2nonc2N)nc2cnccc21', '%', 2.05),
  ('CS(=O)(=O)CCNCc1nc(-c2ccc3ncnc(Nc4ccc(OCc5cccc(C(F)(F)F)c5)cc4)c3c2)cs1', '%', 0.18),
  ('OCc1ccc(-c2nc(-c3ccccn3)c(-c3ccc4c(c3)OCO4)[nH]2)cc1', '%', 2.76),
  ('Cc1cc(O)cc(C)c1/C=C/c1cncc(C(=O)N(C)C)c1', '%', 0.19),
  ('Cc1cc(-c2ccccn2)cc(C)c1/C=C/c1cncc(-c2nn[nH]n2)c1', '%', 1.55);

* * *

Target: Protein-tyrosine kinase 2-beta (Homo sapiens);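 note: reported as mean percent inhibition of PYK2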
Settings: at 0.1 µM
Response key: yes (1) means inhibition >= 10%; no (0) means inhibition < 10%.

INSERT INTO measurements (molecule, class) VALUES
  ('NS(=O)(=O)c1ccc(NC=C2C(=O)Nc3ccc4ncsc4c32)cc1', 'yes (1)'),
  ('COc1cc2ncnc(Nc3ccc(C)c(O)c3)c2cc1OC', 'yes (1)'),
  ('CCn1c(-c2nonc2N)nc2c(C#CC(C)(C)O)nc(OCCNC)cc21', 'no (0)'),
  ('NC(=O)c1sc(-n2cnc3ccccc32)cc1OCc1ccccc1Br', 'no (0)'),
  ('Cc1ccc2c(-c3ccnc(Nc4cccc(C(F)(F)F)c4)n3)c(-c3ccccc3)nn2n1', 'yes (1)');
